Molecular target: Telomerase reverse transcriptase (Homo sapiens, UniProt O14746)
Sequence (O14746 whole entry): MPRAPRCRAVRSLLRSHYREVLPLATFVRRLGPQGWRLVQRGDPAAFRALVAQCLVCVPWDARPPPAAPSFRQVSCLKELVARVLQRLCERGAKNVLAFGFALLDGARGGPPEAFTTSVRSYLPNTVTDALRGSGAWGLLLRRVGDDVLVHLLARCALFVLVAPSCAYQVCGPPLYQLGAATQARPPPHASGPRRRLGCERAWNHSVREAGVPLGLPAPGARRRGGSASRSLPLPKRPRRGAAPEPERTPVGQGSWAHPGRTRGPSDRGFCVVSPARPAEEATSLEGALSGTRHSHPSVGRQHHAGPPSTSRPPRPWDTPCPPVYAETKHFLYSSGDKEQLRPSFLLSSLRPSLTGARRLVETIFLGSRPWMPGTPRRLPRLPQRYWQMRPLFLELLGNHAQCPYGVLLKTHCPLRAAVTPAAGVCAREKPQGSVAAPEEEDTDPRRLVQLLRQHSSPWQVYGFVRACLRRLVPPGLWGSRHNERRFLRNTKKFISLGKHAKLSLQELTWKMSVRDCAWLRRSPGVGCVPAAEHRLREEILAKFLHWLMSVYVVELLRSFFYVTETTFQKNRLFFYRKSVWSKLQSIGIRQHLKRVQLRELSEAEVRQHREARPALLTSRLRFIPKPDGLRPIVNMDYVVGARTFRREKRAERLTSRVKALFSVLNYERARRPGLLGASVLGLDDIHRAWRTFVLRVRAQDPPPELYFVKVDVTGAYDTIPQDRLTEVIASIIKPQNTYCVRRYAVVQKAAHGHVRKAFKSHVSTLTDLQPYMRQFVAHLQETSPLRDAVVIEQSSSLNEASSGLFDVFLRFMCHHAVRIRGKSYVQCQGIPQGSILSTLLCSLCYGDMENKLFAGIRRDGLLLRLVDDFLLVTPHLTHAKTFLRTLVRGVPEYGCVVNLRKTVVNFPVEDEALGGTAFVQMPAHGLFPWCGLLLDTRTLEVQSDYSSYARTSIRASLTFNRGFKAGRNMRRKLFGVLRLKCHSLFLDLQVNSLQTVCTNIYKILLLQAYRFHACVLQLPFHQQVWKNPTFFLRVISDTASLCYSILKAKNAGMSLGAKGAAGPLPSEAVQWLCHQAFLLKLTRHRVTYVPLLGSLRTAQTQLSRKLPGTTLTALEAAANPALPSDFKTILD
Experiment: Inhibition of telomerase in human MGC803 cell extracts after 24 hrs by TRAP-PCR-ELISA
Measure: pIC50
Value format note: pIC50 is -log10 of concentration (mol/L); just state the number.

Record excerpt, results attached:
> print(dat)
                                   compound  measured
1  COC(=O)CSCC(=O)N1N=C(C)C[C@@H]1c1cc(Br)cc(Br)c1O      5.92
2  CC[n+]1c(-c2ccccc2)c2cc(N)ccc2c2ccc(N)cc21 [HOMIDIUM BROMIDE]      5.68
3  CCCCSCC(=O)N1N=C(c2cc3ccccc3oc2=O)C[C@@H]1c1ccc(C(F)(F)F)cc1      6.04

# pIC50 (compound: `O=C(CSc1ccc(Br)cc1)N1N=C(c2cc3ccccc3oc2=O)C[C@@H]1c1ccc(C(F)(F)F)cc1` ) is 4.60

# pIC50 (compound: `CCCSCC(=O)N1N=C(C)C[C@@H]1c1cc(Br)cc(Br)c1O` ) is 5.98

# pIC50 (compound: `O=C(CSc1ncccn1)N1N=C(c2cc3ccccc3oc2=O)C[C@@H]1c1ccccc1C(F)(F)F` ) is 5.05

# pIC50 (compound: `CC1=NN(C(=O)CSc2nc3ccccc3s2)[C@@H](c2cc(Br)cc(Br)c2O)C1` ) is 5.33

# pIC50 (compound: `CCCCSCC(=O)N1N=C(c2cc3ccccc3oc2=O)C[C@@H]1c1ccccc1C(F)(F)F` ) is 5.70

# pIC50 (compound: `C/C(=C\C(=O)Nc1ccccc1C(=O)O)c1ccc2ccccc2c1` ) is 6.55
